The measured values listed here are drawn from ChEMBL document CHEMBL1201862.

# System: SR
# measurement_notes: NCI tumour cell line growth inhibition, 48 h
The source made the active and inactive calls. Cut-off read from the data, not from the text of the source: active = GI50 up to about 1.1 µM and inactive = higher.
Form entry, call: pick from T (active), F (inactive)

input: Which outcome was entered for the molecule O=C1CCCC1CC(CN1CCOCC1)Sc1nnnn1-c1ccccc1 (centres undefined) in this test?
output: F

input: Which outcome was entered for the molecule `Cc1n[nH]c(=O)c2cc(-c3ccccc3)[nH]c12` in this test?
output: F

input: Which outcome was entered for the molecule C#CC1NC(=O)C1N(CC)CC (centres undefined) in this test?
output: F

input: Which outcome was entered for the molecule `CCCCCCc1cc2cc(C(=O)Nc3ccccc3F)c(=N)oc2cc1O` in this test?
output: F

input: Which outcome was entered for the molecule COC(=O)C(Cc1cc(OC)c(OC)c(OC)c1)(NC(=O)c1ccccc1)P(=O)(OC)OC (centres undefined) in this test?
output: F

input: Which outcome was entered for the molecule `COC(=O)/C=C(\CC(=O)OC)n1nnnc1[C@@H]1C[C@H](COC(c2ccccc2)(c2ccccc2)c2ccccc2)[C@H]2OC(C)(C)O[C@H]21` in this test?
output: F

input: Which outcome was entered for the molecule `O=C(NCc1ccccc1)c1cc2ccc(O)c(O)c2cn1` in this test?
output: F

input: Which outcome was entered for the molecule `CCOC(=O)c1c(NC(=O)c2ccc(OC)cc2)sc2c1CCCC2` in this test?
output: F

input: Which outcome was entered for the molecule `COC1(OC)CC(CO)(CNc2nc(N)nc(Cl)c2C=O)C1` in this test?
output: F

input: Which outcome was entered for the molecule `COc1cc2nc(-c3ccccc3F)nc(O)c2cc1OC` in this test?
output: F

input: Which outcome was entered for the molecule `Clc1ccccc1-c1nc2cc(C34CC5CC(CC(C5)C3)C4)ccc2[nH]1` in this test?
output: F

input: Which outcome was entered for the molecule `CCOC(=O)c1nn2c(nc1=O)sc1ccc3ccccc3c12` in this test?
output: F

input: Which outcome was entered for the molecule N#C/N=C1\NC(Cc2ccccc2)C(=O)N1CCc1c[nH]c2ccccc12 (centres undefined) in this test?
output: F

input: Which outcome was entered for the molecule `Nc1nc(-c2ccccc2/N=N/N2CCCC2)nc2ccccc12` in this test?
output: T

input: Which outcome was entered for the molecule `Nc1ccc(S(=O)(=O)Nc2nc3ccccc3nc2N2CCCCC2)cc1` in this test?
output: F

input: Which outcome was entered for the molecule `C/C(CC(O)(C(F)(F)F)C(F)(F)F)=N\NC(N)=S` in this test?
output: F

input: Which outcome was entered for the molecule `S=c1[nH]c(=S)c2nnn(-c3ccccc3)c2[nH]1` in this test?
output: F

input: Which outcome was entered for the molecule O=C(CC1Sc2ccccc2NC1=O)Nc1cc(Cl)ccc1Cl (centres undefined) in this test?
output: F

input: Which outcome was entered for the molecule Cc1nn(C(=O)c2ccc(Cl)cc2)c2c1C(c1ccc(O)cc1)SC(=N)N2 (centres undefined) in this test?
output: F

input: Which outcome was entered for the molecule `C[C@]12CC[C@H]3[C@@H](CCC4=CC(=O)CC[C@@H]43)[C@@H]1CC[C@@H]2OC1(O)C(=O)c2ccccc2C1=O` in this test?
output: F

input: Which outcome was entered for the molecule CCCCCCCCC#CCCCCCCC(F)C(=O)O (centres undefined) in this test?
output: F

input: Which outcome was entered for the molecule CN(C(=O)C12C3C4C1C1C2C3C41C(=O)O)C(C)(C)C (centres undefined) in this test?
output: F

input: Which outcome was entered for the molecule C=C(CCOC)CCC1CCCCC(CN(C)C)C1=O (centres undefined) in this test?
output: F

input: Which outcome was entered for the molecule NC(=O)NCCSC1CCCCC1O (centres undefined) in this test?
output: F
